Percent Control values, listed per item
# Tested on: PIP5K2B
# Construct: gene PIP4K2B
# MEASUREMENT CONTEXT: Compound Concentration (nM):1000;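 note: KINOMEscan scanMAX binding as percent activity remaining versus control; lower means stronger binding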
Field format: number, assumed %, no unit text.

What measured Percent Control goes with NS(=O)(=O)c1ccc(N/N=C2\C(=O)Nc3ccc(C(=O)NCc4ccncc4)cc32)cc1 [GW300657X] ?
100

What measured Percent Control goes with NS(=O)(=O)c1ccc(N/N=C2\C(=O)Nc3ccc(-c4cnco4)cc32)cc1 ?
69

What measured Percent Control goes with Cl.c1ccc(Cc2nc3ccc(Nc4ncnc5ccccc45)cc3[nH]2)cc1 [GR269666A] ?
100

What measured Percent Control goes with NS(=O)(=O)c1ccc(N/N=C2\C(=O)Nc3ccc(C(=O)NCCc4c[nH]cn4)cc32)cc1 [GW300660X] ?
100

What measured Percent Control goes with CCc1ccc(Oc2nccc(-c3c(-c4ccc(F)cc4)ncn3C3CCNCC3)n2)cc1 ?
100

What measured Percent Control goes with CC1=C(C(=O)Nc2ccc3[nH]ncc3c2)C(c2ccc(Cl)c(Cl)c2)CC(=O)N1 (stereo not drawn) [GSK299115A] ?
99

Others:
What measured Percent Control goes with COc1cc2ncnc(Nc3ccc4c(cnn4Cc4ccccc4)c3)c2cc1OC.Cl [GW282449A] ?
100

What measured Percent Control goes with Cl.O=C(O[C@H]1CN[C@H](C#Cc2cc3ncnc(Nc4ccc5c(cnn5Cc5ccccc5)c4)c3s2)C1)N1CCOCC1 [GSK200398A] ?
100

What measured Percent Control goes with O=C(Nc1n[nH]c2nc(-c3ccc(O)cc3)c(Br)cc12)C1CC1 ?
100

What measured Percent Control goes with COc1cccc(-c2c[nH]c3c(N/N=C/c4ccncc4)ncnc23)c1 [GW814408X] ?
100

What measured Percent Control goes with O=C1Nc2ccc(C(=O)c3ccco3)cc2C1=Cc1cc(Cl)c(O)c(Cl)c1 [GW406108X] ?
95

What measured Percent Control goes with CN(C)c1cc2c(Nc3ccc4c(cnn4Cc4ccccc4)c3)ncnc2cn1 [GW282974X] ?
100

What measured Percent Control goes with C[C@@H](Oc1cc(-n2cnc3ccc(OC4CCN(C)CC4)cc32)sc1C(N)=O)c1ccccc1Cl [GSK579289A] ?
52

What measured Percent Control goes with CCS(=O)(=O)c1ccc(OC)c(Nc2ncc(-c3cccc(OC)c3)o2)c1 [GW580509X] ?
91

What measured Percent Control goes with NS(=O)(=O)c1ccc(Nc2ncc(-c3ccccc3)o2)cc1 [GW572399X] ?
100

What measured Percent Control goes with Nc1ncnc2occ(-c3ccc(NC(=O)Nc4cc(C(F)(F)F)ccc4F)cc3)c12 [GW770249X] ?
100

What measured Percent Control goes with COc1cc(C)c(N(C)C(=O)CN(C)C)cc1Nc1nc(Nc2cccc(F)c2C(N)=O)c2cc[nH]c2n1 ?
100

What measured Percent Control goes with COc1cc(C=NNc2ncnc3c2cnn3-c2ccccc2)ccc1O [GW513184X] ?
59

What measured Percent Control goes with CN(C)CCNC(=O)Nc1ccc(N(C)c2ccnc(Nc3ccc(CS(C)(=O)=O)cc3)n2)cc1.Cl [GW830900A] ?
33

What measured Percent Control goes with C/C(Nc1ccc(S(N)(=O)=O)cc1)=C1/C(=O)Nc2ccccc21 [GW335962X] ?
100

----------
# Test system: YANK3
# Construct: gene STK32C
# MEASUREMENT CONTEXT: Compound Concentration (nM):1000
Percent Control values, listed per item
Field format: number, assumed %, no unit text.

These solved cases illustrate the format of a correct answer.
What measured Percent Control goes with CC1=C(C(=O)Nc2ccc3[nH]ncc3c2)C(c2ccc3ccccc3c2)CC(=O)N1 (stereo not drawn) [GSK270822A] ?
96

What measured Percent Control goes with Cc1cc(O)cc(C)c1/C=C/c1cncc(C(N)=O)c1 [GW435821X] ?
100

What measured Percent Control goes with COc1cc(N2CCN(C(C)C)CC2)ccc1Nc1nc(Nc2ccc(F)cc2C(=O)NC[C@@H](O)CO)c2cc[nH]c2n1 [GSK1392956A] ?
100

What measured Percent Control goes with C/C(Nc1ccc(S(N)(=O)=O)cc1)=C1/C(=O)Nc2ccccc21 [GW335962X] ?
88

Others:
What measured Percent Control goes with COc1cc(C)c(N(C)C(=O)CN(C)C)cc1Nc1nc(Nc2cccc(F)c2C(N)=O)c2cc[nH]c2n1 [GSK2219385] ?
85

What measured Percent Control goes with COc1ccc(COc2ccc(Cc3cnc(N)nc3N)cc2OC)cc1 [GW632580X] ?
100

What measured Percent Control goes with CN(C)c1cc2c(Nc3ccc4c(cnn4Cc4ccccc4)c3)ncnc2cn1 [GW282974X] ?
100

What measured Percent Control goes with CCS(=O)(=O)c1ccc(OC)c(Nc2ncc(-c3cccc(OC)c3)o2)c1 [GW580509X] ?
100

What measured Percent Control goes with CCn1c(-c2nonc2N)nc2c(C#CC(C)(C)O)nc(OCCNC)cc21.Cl [GSK949675] ?
100

What measured Percent Control goes with COC(=O)Nc1nc2ccc(Oc3ccc(NC(=O)Nc4cc(C(F)(F)F)ccc4F)cc3)cc2s1.Cl [GW693917A] ?
94

What measured Percent Control goes with COc1cc2ncn(-c3cc(O[C@H](C)c4ccccc4Cl)c(C(N)=O)s3)c2cc1OC [GSK237701A] ?
92

What measured Percent Control goes with COc1cccc(-c2c[nH]c3c(N/N=C/c4ccncc4)ncnc23)c1 [GW814408X] ?
100

What measured Percent Control goes with COc1ccc2c(-c3ccnc(Nc4cccc(OC(F)(F)F)c4)n3)cnn2n1 [GW810372X] ?
100

What measured Percent Control goes with NS(=O)(=O)c1ccc(N/N=C2\C(=O)Nc3ccc(C(=O)NCCc4c[nH]cn4)cc32)cc1 [GW300660X] ?
100

What measured Percent Control goes with C[C@@H](Oc1cc(-n2cnc3ccc(OC4CCN(C)CC4)cc32)sc1C(N)=O)c1ccccc1Cl [GSK579289A] ?
100

What measured Percent Control goes with COc1ccc2cc(-c3c(-c4ccncc4)nc(-c4ccc(S(C)(=O)=O)cc4C)n3C)ccc2c1 [SB-633825] ?
70

What measured Percent Control goes with CC1=C(C(=O)Nc2ccc3[nH]ncc3c2)C(c2ccc(Cl)c(Cl)c2)CC(=O)N1 (stereo not drawn) [GSK299115A] ?
99

What measured Percent Control goes with Cl.c1ccc(Cc2nc3ccc(Nc4ncnc5ccccc45)cc3[nH]2)cc1 [GR269666A] ?
100

What measured Percent Control goes with Cl.O=C(O[C@H]1CN[C@H](C#Cc2cc3ncnc(Nc4ccc5c(cnn5Cc5ccccc5)c4)c3s2)C1)N1CCOCC1 [GSK200398A] ?
100

What measured Percent Control goes with Cl.O=C(Nc1ccc(Oc2ccc3[nH]c(NC(=O)c4ccco4)nc3c2)cc1)Nc1cc(C(F)(F)F)ccc1F [GW683134A] ?
100

What measured Percent Control goes with COc1cccc(-n2ncc3c(N/N=C/c4ccncc4)ncnc32)c1 [GW784752X] ?
100

What measured Percent Control goes with NS(=O)(=O)c1ccc(N/N=C2\C(=O)Nc3ccc(Cl)cc32)cc1 [GW280670X] ?
100
